FYI, the data here is from PubChem BioAssay.

Consider the following molecules; for each one, report its z-score.
# test name: Plasmodium falciparum growth inhibition, primary screen, strain 3D7, DAPI fluorescence, 100 nL (AID 1184);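 further: parasites grown inside human red blood cells in medium with human serum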
# condition: P. falciparum 3D7 growth, 3 d, higher = more signal
In your answer, state the number alone without any accompanying words.

Query string: Need z-score of "O=C1N(Cc2ccccc2)c2ccccc2[C@@H]2OC(c3ccc(OCCCO)cc3)=N[C@]12Cc1ccccc1" , thanks.
Result string: -2.45

Query string: Another molecule to look at: CC(C)(C)N1CC=CC23O[C@@H]4C=CCCOC(=O)C4[C@H]2C(=O)N(CCO)[C@@H]3C1=O (stereo partly specified)
Result string: -0.175

Query string: Another molecule to look at: "O=C(NCc1ccccc1)[C@@H]1c2ccccc2C(=O)N(Cc2ccccc2C(F)(F)F)[C@H]1c1ccc(CO)cc1"
Result string: 0.0452

Query string: Another molecule to look at: "COc1cc(CO)cc(I)c1O[C@H]1C=C(C(=O)NCCO)C[C@@H](NCc2ccc(F)cc2)[C@@H]1O"
Result string: -3.1

Query string: Another molecule to look at: "COC(=O)[C@@]1(Cc2ccccc2)[C@H]2c3cc(C(=O)N(C)C)n(CCN4CNCC4=O)c3C[C@H]2CN1C(=O)c1ccccc1"
Result string: -0.17

Query string: Another molecule to look at: "Cc1ccc(S[C@]2(C(=O)O)CC(=O)N(Cc3ccccc3Cl)[C@@H]2c2ccc(CO)cc2I)cc1"
Result string: 0.204

Query string: Another molecule to look at: "CN(C)CCCNC(=O)[C@@H]1c2ccccc2C(=O)N(Cc2ccccc2Cl)[C@H]1c1ccc(CO)cc1"
Result string: -0.424

Query string: Another molecule to look at: "C=C(CCCC)/C(=C/C[C@@H](OC(=O)c1ccncc1)c1ccccc1OCCO)c1cnc2ccccc2c1"
Result string: -3.02

Query string: Another molecule to look at: CC(C)(C)N1CC=CC23O[C@@H]4C=CCOC(=O)[C@@H]4[C@H]2C(=O)N(CCCCCCO)[C@@H]3C1=O (stereo partly specified)
Result string: -0.429

Query string: Another molecule to look at: "C=C(C(=O)CC[C@@H](OC(C)=O)c1ccc(CO)o1)C(C)C"
Result string: -0.14

Query string: Another molecule to look at: "COC(=O)c1ccc([C@H](NC(=O)c2ccco2)[C@]2(C)C[C@H]2C2CCCCC2)cc1"
Result string: -0.414

Query string: Another molecule to look at: "COC(=O)Cn1c(C(=O)N(C)C)cc2c1C[C@H]1CN(C(=O)c3ccccc3)[C@@](Cc3ccc(F)cc3)(C(=O)OC)[C@@H]21"
Result string: -0.0793

Query string: Another molecule to look at: "CC(=O)NCCCC[C@@H]1NC(=O)[C@H]2C[C@@H](C(=O)NCCCC[N+](C)(C)C)[C@@H](c3cccc(OCCO)c3)N2C1=O"
Result string: -0.207

Query string: Another molecule to look at: "CCOC(=O)C[C@H]1[C@H](OC(=O)c2cc3ccccc3oc2=O)[C@@H](NC(=O)c2ccc(-c3ccccc3)cc2)c2cc(OCCCO)ccc2N1C(=O)c1ccc2ccccc2n1"
Result string: -0.949

Query string: Another molecule to look at: C=C(C)C1CCC(C(O)C2C=CC3C(=O)N(C)C(=O)C3N2N2CCCCC2)CC1 (stereo unspecified)
Result string: -0.122

Query string: Another molecule to look at: "COC(=O)[C@H](Cc1ccccc1)N1CC(/C=C/C2CC2)=C[C@H]1[C@H](O)Cc1ccccc1"
Result string: -1.65
